tested on: UACC-62; test: NCI tumour cell line growth inhibition, 48 h
Calls of active or inactive are those of the source. No stated cut-off is given here; in the data, active = GI50 up to about 1.1 µM and inactive = higher.
quantity_name: GI50

// below: answered compounds
| compound | GI50 |
| --- | --- |
| CCCCCCCCCCCCCCCCCCNc1nc(=O)n(C2CC(O)C(COP(=O)(O)OCC3OC(n4ccc(N)nc4=O)C(O)C3O)O2)cc1F (configuration not stated) | 80.4 µM (inactive) |
| O=c1oc2ccc(Cl)cc2cc1C1=CSC2=NCCN12 | 19.5 µM (inactive) |
| Cc1cc(C)c(-c2noc(-c3ccc(Cl)cc3)c2C2=NCCN2)c(C)c1 | 16.8 µM (inactive) |
| COc1ccc(S(=O)(=O)N[C@H](C(=O)O)c2ccccc2)cc1 | > 100 µM (inactive) |
| CCNCCCCNCCCCNCCCCNCCCCNCC | 14.4 µM (inactive) |

# per-item lookup of GI50; items listed below
1. CC(=O)O[C@H]1[C@H](O[C@H]2CC[C@]34C[C@]35CC[C@]3(C)[C@@H]([C@@]6(C)CC[C@@H](C(C)(C)O)O6)[C@@H](O)C[C@@]3(C)[C@@H]5C[C@H](O[C@@H]3O[C@H](CO)[C@@H](O)[C@H](O)[C@H]3O)[C@H]4C2(C)C)OC[C@@H](O)[C@@H]1O
2. O=C1O[C@H]2[C@@H]3OC(=O)c4cc(O)c(O)c(O)c4-c4c(cc(O)c(O)c4O)C(=O)OC[C@H]2O[C@@H](OC(=O)c2cc(O)c(O)c(O)c2)[C@@H]3OC(=O)c2cc(O)c(O)c3c2[C@@H]2C1=CC(=O)C(O)(O)C2(O)O3 (some centres not stated)

[A]
1: > 100 µM (inactive); 2: 30.1 µM (inactive)

# credit: ChEMBL document CHEMBL1201862
